target: T1, human Galectin-3 (Gal3), full-length recombinant (human, UniProt P17931 2-250); assay: not stated. Exponent is printed without a minus sign; value taken as a negative power of ten because the column is a KD in M
T1 construct: treated here as one molecule; also called hGAL3; hGal3
T1 sequence (P17931 2-250 limits assumed): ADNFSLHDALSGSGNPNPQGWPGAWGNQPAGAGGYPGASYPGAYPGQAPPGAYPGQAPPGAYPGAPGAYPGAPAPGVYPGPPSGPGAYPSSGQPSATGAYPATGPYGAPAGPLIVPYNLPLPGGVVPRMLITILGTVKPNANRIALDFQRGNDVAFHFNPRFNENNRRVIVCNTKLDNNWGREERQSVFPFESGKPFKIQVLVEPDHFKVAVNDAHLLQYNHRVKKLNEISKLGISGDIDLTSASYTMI
Field: label. Allowed values: class 1 (Kd < 3 nM) or class 0 (Kd >= 3 nM).

Ask | Is Kd of F846TC.14E4 (antibody, human IgG4 S228P, kappa, V domains shown, also called 846T.14E4) VH: QVTLKESGPGILQPSQTLSLTCSFSGFSLSTSGMGVGWIRQPSGKGLEWLAHIWWDDDKYYNTALKSGLTISKDASKNQVFLKIASMDTADTATYYCARNLYDGSYGYYAMDYWGQGTSVTVSS VL: DIVMTQAAFSNPVTLGTSASISCRSSKSLLHTNGITFLYWYLQKPGQSPQPLIYQMSNLASGVPDRFSSSGSGTDFTLRISRVEAEDVGVYYCAQNLELPWTFGGGTKLEINR strictly below 3 nM?
Reply | class 1

Ask | Is Kd of F847C.11B1 (antibody, human IgG4 S228P, kappa, V domains shown, also called 847.11B1) VH: EVQLQQSGPELVKPGASVKISCKASGNTFTDHNMHWVKQSHGKSLEWIGYIYPYNGGTGYNQKFKSKATLTVDNSSSTVYMELRSLTSEDSAVYYCARGEYDYLAWFAYWGQGTLVTVSA VL: EIVLTQSPASLSVTTGEKVTIRCITSIDIDDDMNWYQQKPGEPPKLLISEGNTLRPGVPSRFSSSGYGTDFVFTIENTLSEDVADYYCLQSDNKPLTFGAGTKLELKR strictly below 3 nM?
Reply | class 0

Ask | Is Kd of F846C.1B2 (antibody, human IgG4 S228P, kappa, V domains shown, also called 846.1B2) VH: QIQLVQSGPELKKPGETVKISCKASGYTFTNYGMNWVKQAPGKGLKWMGWINTYTGEPSYADDFKGRFAFSLETSASTAYLQINNLKNEDMATYFCARWGGYAGDYYAMDFWGQGTSVTVSS VL: NIWLTQSPSSLAVSAGEMVTMTCKSSQSVLYSSNQKNYLAWYQQKPGQSPKLLIYWASTRESGVPDRFTGSGSGTDFSLTISSVQAEDLAVYYCHQYLSSLTFGAGTKLELKR strictly below 3 nM?
Reply | class 0

Ask | Is Kd of F849C.8D10 (antibody, human IgG4 S228P, kappa, V domains shown, also called 849.8D10) VH: QVQLQQTGAELVKPGASVKLSCKASGYTFTSYWINWVKQRPGQGLEWIGNIYPGSSSIYYSEKFKSKATLTVDTSSSTAYMQLSSLTSDDSAVYYCARWGYWGQGTTLTVSS VL: DVLMTQTPLSLPVSLGDQASISCRSSQDIVHSSGNTYLEWYLQKPGQSLKLLIYKVSNRFSGVPDRFSASGSGTDFTLKISRVEAEDLGVYYCFQGSHVPPTFGSGTKLEIKR strictly below 3 nM?
Reply | class 0

Ask | Is Kd of F846C.1H5 (antibody, human IgG4 S228P, kappa, V domains shown) VH: EVQLLESGGGLVKPGGSLKLSCAASGFTFSSYAMSWVRQTPEKRLEWVASISSGGDTYYPDSVKGRFTISRDNARNILYLQMSSLRSEDTAMYYCASYGNSLFDYWGQGTTLTVSS VL: DVVMTQTPLSLPVSLGDQASISCRSSQSLVHNSGNTYLHWYLQRPGQSPNLLIYKVSNRFSGVPDRFSGSGSGTDFTLKISRVAAEDLGVYFCSQSTHVPPTFGGGTKLEIKR strictly below 3 nM?
Reply | class 0
